System: SK-MEL-2 melanoma
Assay: NCI-60 one-dose screen, 48 h
Conditions: 10 µM unless noted
This is part of a sample that, as a whole, favours compounds with a hit. Of some 83,000 tested, about 20% had one in any assay. Active and inactive are the calls of the source. Rule for the calls: active = growth percent below 10; inactive = the rest.
Please state which outcome applies, choosing from active, inactive

These recorded examples may help you get a feel for the data.
- molecule: "Cn1c(/C=C/[N+](=O)[O-])cc2ccccc21"
  category_label: "inactive"
- molecule: "CCCCCCCCn1ccc2cc(NC(=O)Cn3cc(CN4CCC(C)CC4)nn3)ccc21"
  category_label: "inactive"
- molecule: "N=C(N)SCc1cccc2c(CSC(=N)N)cccc12"
  category_label: "inactive"
- molecule: "CCOC(=O)c1n[nH]n2c1nc(=O)c1cnn(C)c12"
  category_label: "inactive"

Query: Hey, what did the test say about CCOC(=O)c1c(NC(=O)CSc2n[nH]c3nc4ccccc4n23)sc(CC)c1C ?
Response: inactive

Query: Next molecule up: C=C(c1ccc(C(=O)O)cn1)c1cc2c(cc1C)C(C)(C)CCC2(C)C
Response: inactive

Query: Another molecule to look at: CNC(=O)c1c(NC(=O)c2ccc(C(C)(C)C)cc2)sc2c(CN(C)C)c(O)ccc12
Response: active

Query: Repeat for the following molecule: COc1ccc(-c2ccc(-c3ccc(C(=N)N)cn3)s2)cc1
Response: inactive

Query: Let us now turn to CCN1C(=O)N(CC)C2C1NN=C1SCC(=O)N12 (stereo unspecified)
Response: inactive

Query: Moving on to the next molecule: Cc1cc2nc3c4ccccc4n(CCN(C)C)c3nc2cc1C
Response: inactive

Query: Please give the result for O=C(Nc1cccnc1Nc1ccc(Cl)cc1)c1cn(Cc2ccc(F)cc2)nn1 too.
Response: inactive
